- Test system: Splenocytes (B cell proliferation stimulated with anti-IgM F(ab′)2)
- Test description: Splenic Cell Proliferation Assay
- Format: cell-based
- Reported conditions: Mus musculus, Splenocyte, 72 h, CD1 mouse splenocytes, 2.5 ug/ml anti-IgM F(ab′)2 for 72 h, Cell Titer-Glo; read-out: EC50 (nM), Inhibition of splenic cell proliferation
Assay readout: EC50

Please review the entries below; each comes with its answer.
Compound | Test system | EC50
Nc1ncnc2c1c(-c1ccc(Oc3cccc(COc4ccccc4)c3)cc1)nn2C1CCCC1 [Compound 13] | Splenocytes (B cell proliferation stimulated with anti-IgM F(ab′)2) | < 100 nM
COCCn1cncc1COc1cc(F)cc(Oc2ccc(-c3nn(C4CCOCC4)c4ncnc(N)c34)cc2)c1 [Compound 83] | Splenocytes (B cell proliferation stimulated with anti-IgM F(ab′)2) | 100 to 1000 nM
Nc1ncnc2c1c(-c1ccc(Oc3cccc(OCc4ccccc4)c3)cc1)nn2[C@@H]1CCCNC1 [Compound 4] | Splenocytes (B cell proliferation stimulated with anti-IgM F(ab′)2) | 100 to 1000 nM
Cc1ncc(COc2cc(F)cc(Oc3ccc(-c4nn(C(CO)CO)c5ncnc(N)c45)cc3)c2)cn1 [Compound 130] | Splenocytes (B cell proliferation stimulated with anti-IgM F(ab′)2) | 100 to 1000 nM
Cc1ncc(COc2cc(F)cc(Oc3ccc(-c4nn(C(C)C)c5ncnc(N)c45)cc3)c2)cn1 [Compound 102] | Splenocytes (B cell proliferation stimulated with anti-IgM F(ab′)2) | < 100 nM

Req: Fill blank: measured EC50 of the compound Nc1ncnc2c1c(-c1ccc(Oc3cc(F)cc(CCc4ccccc4)c3)cc1)nn2C1CCOCC1 [Compound 66] is ____.
Resp: 100 to 1000 nM

Req: Fill blank: measured EC50 of the compound CC(=O)N1CCC[C@@H](n2nc(-c3ccc(Oc4cccc(OCc5ccccc5C#N)c4)cc3)c3c(N)ncnc32)C1 [Compound 28] is ____.
Resp: < 100 nM

Req: Fill blank: measured EC50 of the compound Nc1ncnc2c1c(-c1ccc(Oc3cccc(COc4ccccc4C(F)(F)F)c3)cc1)nn2C1CCCC1 [Compound 32] is ____.
Resp: < 100 nM

Req: Fill blank: measured EC50 of the compound Nc1ncnc2c1c(-c1ccc(Oc3cc(F)cc(OCc4cncn4Cc4ccccc4)c3)cc1)nn2C1CCOCC1 [Compound 76] is ____.
Resp: 100 to 1000 nM

----------
- System: Splenocytes (B cell proliferation stimulated with anti-IgM F(ab′)2)
- Test description: Splenic Cell Proliferation Assay
- Type: cell-based
- Reported conditions: Mus musculus, Splenocyte, 72 h, CD1 mouse splenocytes, 2.5 ug/ml anti-IgM F(ab′)2 for 72 h, Cell Titer-Glo; read-out: EC50 (nM), Inhibition of splenic cell proliferation
Assay readout: EC50

Please review the entries below; each comes with its answer.
Molecule | Test system | EC50
Cc1ncc(COc2cc(F)cc(Oc3ccc(-c4nn(C5CCCC5)c5ncnc(N)c45)cc3)c2)n1C | Splenocytes (B cell proliferation stimulated with anti-IgM F(ab′)2) | < 100 nM
CN1CCN(CCn2nc(-c3ccc(Oc4cccc(OCc5cncs5)c4)cc3)c3c(N)ncnc32)CC1 | Splenocytes (B cell proliferation stimulated with anti-IgM F(ab′)2) | 100 to 1000 nM
CC(=O)n1nc(-c2ccc(Oc3cccc(OCc4ccccc4)c3)cc2)c2c(N)ncnc21 | Splenocytes (B cell proliferation stimulated with anti-IgM F(ab′)2) | 100 to 1000 nM
CC(C)(C)OC(=O)N1CCCC(n2nc(-c3ccc(Oc4cccc(OCc5cncs5)c4)cc3)c3c(N)ncnc32)C1 (stereo not drawn) | Splenocytes (B cell proliferation stimulated with anti-IgM F(ab′)2) | < 100 nM
COc1ccc(COc2cccc(Oc3ccc(-c4nn(C5CCCC5)c5ncnc(N)c45)cc3)c2)cc1 | Splenocytes (B cell proliferation stimulated with anti-IgM F(ab′)2) | 100 to 1000 nM
Cc1ncc(COc2cc(F)cc(Oc3ccc(-c4nn(C(C)C)c5ncnc(N)c45)cc3)c2)n1C | Splenocytes (B cell proliferation stimulated with anti-IgM F(ab′)2) | < 100 nM

Req: Fill blank: measured EC50 of the molecule Cc1ncc(COc2cc(F)cc(Oc3ccc(-c4nn(C(CO)CCl)c5ncnc(N)c45)cc3)c2)s1 (stereo not drawn) is ____.
Resp: < 100 nM

Req: Fill blank: measured EC50 of the molecule CC(=O)N1CCC[C@@H](n2nc(-c3ccc(Oc4cccc(OCc5cncs5)c4)cc3)c3c(N)ncnc32)C1 is ____.
Resp: < 100 nM

Req: Fill blank: measured EC50 of the molecule Cc1ncc(COc2cc(F)cc(Oc3ccc(-c4nn(C[C@@H]5CCCN5)c5ncnc(N)c45)cc3)c2)s1 is ____.
Resp: 100 to 1000 nM

Req: Fill blank: measured EC50 of the molecule Cc1ccc(COc2cc(F)cc(Oc3ccc(-c4nn(C5CCOCC5)c5ncnc(N)c45)c(F)c3)c2)cn1 is ____.
Resp: < 100 nM

Req: Fill blank: measured EC50 of the molecule Cc1ccc(COc2cc(F)cc(Oc3ccc(-c4nn(C(C)C)c5ncnc(N)c45)cc3)c2)cn1 is ____.
Resp: < 100 nM

Req: Fill blank: measured EC50 of the molecule Cn1cncc1COc1cc(F)cc(Oc2ccc(-c3nn(CCO)c4ncnc(N)c34)c(F)c2)c1 is ____.
Resp: 100 to 1000 nM

Req: Fill blank: measured EC50 of the molecule Nc1ncnc2c1c(-c1ccc(Oc3cccc(OCc4cncs4)c3)cc1)nn2C1CCCC1 is ____.
Resp: < 100 nM

Req: Fill blank: measured EC50 of the molecule Nc1ncnc2c1c(-c1ccc(Oc3cc(F)cc(OCc4cnccn4)c3)cc1)nn2C1CCOCC1 is ____.
Resp: < 100 nM

Req: Fill blank: measured EC50 of the molecule Cc1ncc(COc2cc(F)cc(Oc3ccc(-c4nn(C5COC5)c5ncnc(N)c45)cc3)c2)s1 is ____.
Resp: < 100 nM

Req: Fill blank: measured EC50 of the molecule Nc1ncnc2c1c(-c1ccc(Oc3cc(F)cc(OCc4cncn4CCO)c3)cc1)nn2C1CCOCC1 is ____.
Resp: 100 to 1000 nM

----------
- System: Splenocytes (B cell proliferation stimulated with anti-IgM F(ab′)2)
- Test description: Splenic Cell Proliferation Assay
- Format: cell-based
- Reported conditions: Mus musculus, Splenocyte, 72 h, CD1 mouse splenocytes, 2.5 ug/ml anti-IgM F(ab′)2 for 72 h, Cell Titer-Glo; read-out: EC50 (nM), Inhibition of splenic cell proliferation
Assay readout: EC50

Molecule | Test system | EC50
Nc1ncnc2c1c(-c1ccc(Oc3cc(F)cc(OCc4ccccc4)c3)cc1)nn2C1CCOCC1 [Compound 63] | Splenocytes (B cell proliferation stimulated with anti-IgM F(ab′)2) | < 100 nM
Nc1ncnc2c1c(-c1ccc(Oc3cc(F)cc(OCc4cncs4)c3)cc1)nn2C1CCCC1 [Compound 50] | Splenocytes (B cell proliferation stimulated with anti-IgM F(ab′)2) | < 100 nM
Nc1ncnc2c1c(-c1ccc(Oc3cc(F)cc(OCc4cncnc4)c3)cc1)nn2C1CCOCC1 [Compound 68] | Splenocytes (B cell proliferation stimulated with anti-IgM F(ab′)2) | < 100 nM
Cc1ccc(COc2cc(F)cc(Oc3ccc(-c4nn(CCO)c5ncnc(N)c45)cc3)c2)cn1 [Compound 88] | Splenocytes (B cell proliferation stimulated with anti-IgM F(ab′)2) | < 100 nM

Here is another molecule to look at.
Req: Test system Splenocytes (B cell proliferation stimulated with anti-IgM F(ab′)2); read-out EC50; what value for Cn1cncc1COc1cc(F)cc(Oc2ccc(-c3nn(CC(C)(C)O)c4ncnc(N)c34)cc2)c1 [Compound 112] ?
Resp: 100 to 1000 nM

Each recorded value in this set is attributed to patent US9796716B2.
